Target: P2X7 receptor (Homo sapiens, UniProt Q99572)
Construct: host or cells: THP-1 cells differentiated with LPS and IFN-γ
Sequence (Q99572 whole entry): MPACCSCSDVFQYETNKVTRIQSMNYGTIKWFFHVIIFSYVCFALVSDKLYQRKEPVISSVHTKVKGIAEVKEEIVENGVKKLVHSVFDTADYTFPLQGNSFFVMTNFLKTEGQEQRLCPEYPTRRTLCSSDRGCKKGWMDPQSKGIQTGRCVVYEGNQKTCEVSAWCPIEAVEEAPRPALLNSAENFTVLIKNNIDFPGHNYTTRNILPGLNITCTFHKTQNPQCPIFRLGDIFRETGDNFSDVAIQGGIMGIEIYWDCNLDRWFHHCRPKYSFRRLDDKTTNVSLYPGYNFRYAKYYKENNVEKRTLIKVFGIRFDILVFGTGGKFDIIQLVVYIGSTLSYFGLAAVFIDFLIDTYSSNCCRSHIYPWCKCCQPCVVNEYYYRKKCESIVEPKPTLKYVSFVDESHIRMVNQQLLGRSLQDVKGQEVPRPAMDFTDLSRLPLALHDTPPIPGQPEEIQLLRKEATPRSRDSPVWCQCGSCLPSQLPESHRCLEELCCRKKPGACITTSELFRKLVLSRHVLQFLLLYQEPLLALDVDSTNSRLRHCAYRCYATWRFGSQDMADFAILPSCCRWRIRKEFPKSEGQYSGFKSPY
Assay: IL-1β release assay (BzATP-stimulated, LPS/IFN-γ differentiated THP-1 cells, ELISA)
Type: cell-based
Details: at 0.1 μM (asterisk symbols)
REPORTED ENDPOINT: inhibition at 0.1 µM

Please review the following examples before continuing.
O=C(CC12CC3CC(CC(C3)C1)C2)Nc1cccc2c(=O)n(CCCn3ccnc3)ccc12 [Compound 824]: 50 to 75%
CC12CC3CC(C)(C1)CC(CC(=O)Nc1cccc4c(=O)n(Cc5ccc(F)cc5)ccc14)(C3)C2 [Compound 754]: ≥ 75%
O=C(CC12CC3CC(CC(C3)C1)C2)Nc1cccc2c1CCN(CC1COCCO1)C2=O (stereo not drawn) [Compound 796]: ≥ 75%
CC12CC3CC(C)(C1)CC(CC(=O)Nc1cccc4c(=O)n(Cc5ccc(S(C)(=O)=O)cc5)ccc14)(C3)C2 [Compound 759]: 50 to 75%
O=C(CC12CC3CC(CC(C3)C1)C2)Nc1cccc2c(=O)n(Cc3nccs3)ccc12 [Compound 885]: ≥ 75%
CC12CC3CC(C)(C1)CC(CC(=O)Nc1cccc4c(=O)n(Cc5c(F)cccc5F)ccc14)(C3)C2 [Compound 835]: ≥ 75%
CC1CN(CCn2ccc3c(NC(=O)CC45CC6CC(CC(C6)C4)C5)cccc3c2=O)CC(C)O1 (stereo not drawn) [Compound 869]: 50 to 75%
O=C(CC12CC3CC(CC(C3)C1)C2)Nc1cccc2c(=O)n(CCO)ccc12 [Compound 845]: ≥ 75%

-- ask Report inhibition at 0.1 µM for O=C(CC12CC3CC(CC(C3)C1)C2)Nc1cccc2c(=O)n(C[C@H]3CCCN3)ccc12 [Compound 811] please.
-- reply ≥ 75%

-- ask Report inhibition at 0.1 µM for NC(=O)CCn1ccc2c(NC(=O)CC34CC5CC(CC(C5)C3)C4)cccc2c1=O [Compound 829] please.
-- reply ≥ 75%

-- ask Report inhibition at 0.1 µM for CC12CC3CC(C)(C1)CC(CC(=O)Nc1cccc4c(=O)n(CC5CCOCC5)ccc14)(C3)C2 [Compound 820] please.
-- reply ≥ 75%

-- ask Report inhibition at 0.1 µM for CN(C)CCn1ccc2c(NC(=O)CC34CC5CC(C)(CC(C)(C5)C3)C4)cccc2c1=O [Compound 763] please.
-- reply 25 to 50%

-- ask Report inhibition at 0.1 µM for O=C(CC12CC3CC(CC(C3)C1)C2)Nc1cccc2c(=O)n(C[C@@H]3CCCN3)ccc12 [Compound 810] please.
-- reply ≥ 75%

-- ask Report inhibition at 0.1 µM for NC(=O)[C@H](Cc1c[nH]cn1)n1ccc2c(NC(=O)CC34CC5CC(CC(C5)C3)C4)cccc2c1=O [Compound 882] please.
-- reply ≥ 75%
